# credit: patent US11618749B2

Examples of molecules with documented pEC50 follow.
biological target: hSTING (Homo sapiens, UniProt Q86WV6, G230A/H232R/R293Q/R71H); experiment: STING reporter assay (luciferase reporter) in THP1-Dual KO-IFNAR2 cells activated with 2′3′cGAMP; conditions: 15 μM 2′3′cGAMP, 24 h, luciferase reporter activity
Sequence (Q86WV6 whole entry R71H/G230A/H232R/R293Q): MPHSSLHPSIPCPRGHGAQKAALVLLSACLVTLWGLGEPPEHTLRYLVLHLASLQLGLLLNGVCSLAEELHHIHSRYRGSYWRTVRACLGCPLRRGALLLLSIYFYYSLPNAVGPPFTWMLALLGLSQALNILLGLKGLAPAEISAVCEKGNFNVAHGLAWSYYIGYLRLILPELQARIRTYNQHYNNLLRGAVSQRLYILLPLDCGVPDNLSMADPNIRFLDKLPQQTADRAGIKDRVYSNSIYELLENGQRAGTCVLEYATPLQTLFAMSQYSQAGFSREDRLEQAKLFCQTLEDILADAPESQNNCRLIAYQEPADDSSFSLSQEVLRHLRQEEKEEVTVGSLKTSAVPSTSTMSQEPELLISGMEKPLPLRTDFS
pEC50: −log10 of the molar value.

molecule: O=C(Nc1ccc(C(F)(F)F)cc1)Nc1c[nH]c2cnccc12 [Compound 144]
pEC50: 5.30 to 6.00
--
molecule: O=C(Nc1c[nH]c2ncccc12)N1CCCC(c2ccccc2)C1 (centres unmarked) [Compound 307]
pEC50: 4.00 to 5.30
--
molecule: CC(c1ccc(-c2ccnc3[nH]cc(NC(=O)Nc4ccc(C(F)(F)F)cc4)c23)cc1)N(C)C (centres unmarked) [Compound 192]
pEC50: 4.00 to 5.30
--
molecule: O=C(Nc1c[nH]c2cccnc12)NC1CCC(C(F)(F)F)CC1 (centres unmarked) [Compound 141]
pEC50: 4.00 to 5.30
--
molecule: O=C(Nc1c[nH]c2ncccc12)NC1CCc2ccccc2C1 (centres unmarked) [Compound 136]
pEC50: 4.00 to 5.30
--
molecule: CCCCc1ncc(NC(=O)Nc2c[nH]c3ncc(F)cc23)cc1F [Compound 255]
pEC50: 6.00 to 6.70
--
molecule: O=C(Nc1ccc(C(F)(F)F)cc1)Nc1c[nH]c2ncc(C3=CCOCC3)cc12 [Compound 212]
pEC50: 5.30 to 6.00
--
molecule: CCCCC1CCC(NC(=O)Nc2c[nH]c3ccncc23)CC1 (centres unmarked) [Compound 317]
pEC50: 6.00 to 6.70
--
molecule: CCCCC1CCCN(C(=O)Nc2c[nH]c3ncccc23)C1 (centres unmarked) [Compound 167]
pEC50: 4.00 to 5.30
--
molecule: O=C(Nc1ccc(C(F)(F)F)cc1)Nc1c[nH]c2ncc(F)cc12 [Compound 173]
pEC50: 6.70 to 7.40
--
molecule: O=C(Nc1ccc(C(F)(F)F)c(Cl)c1)Nc1c[nH]c2ncc(F)cc12 [Compound 282]
pEC50: 6.00 to 6.70
--
molecule: O=C(Nc1ccc(C(F)(F)F)nc1)Nc1c[nH]c2ccncc12 [Compound 318]
pEC50: 4.00 to 5.30
--
molecule: O=C(Nc1cccc(C(F)(F)F)c1)Nc1c[nH]c2ccncc12 [Compound 148]
pEC50: 5.30 to 6.00
--
molecule: O=C(Nc1ccc(C(F)(F)F)cc1)Nc1c[nH]c2ccncc12 [Compound 145]
pEC50: 6.00 to 6.70

---

target: hSTING (Homo sapiens, UniProt Q86WV6, G230A/H232R/R293Q/R71H); test: STING reporter assay (luciferase reporter) in THP1-Dual KO-IFNAR2 cells activated with 2′3′cGAMP; details: 15 μM 2′3′cGAMP, 24 h, luciferase reporter activity
pEC50: −log10 of the molar value.
measure: pEC50

compound: O=C(Nc1c[nH]c2ncc(F)cc12)NC1CCC(Cc2ccccc2)CC1 (stereo not drawn) [Compound 248]
target under test: hSTING (Homo sapiens, UniProt Q86WV6, G230A/H232R/R293Q/R71H)
measured: 6.00 to 6.70
//
compound: CCc1ccc(NC(=O)Nc2c[nH]c3ncc(F)cc23)cc1 [Compound 174]
target under test: hSTING (Homo sapiens, UniProt Q86WV6, G230A/H232R/R293Q/R71H)
measured: 6.70 to 7.40
//
compound: CCCCC1CCC(NC(=O)Nc2c[nH]c3ncccc23)CC1 (stereo not drawn) [Compound 170]
target under test: hSTING (Homo sapiens, UniProt Q86WV6, G230A/H232R/R293Q/R71H)
measured: 6.00 to 6.70
//
compound: O=C(Nc1ccc(C(F)(F)F)cc1)Nc1c[nH]c2cnc(-c3ccccc3)nc12 [Compound 180]
target under test: hSTING (Homo sapiens, UniProt Q86WV6, G230A/H232R/R293Q/R71H)
measured: 4.00 to 5.30
//
compound: O=C(Nc1ccc(C(F)(F)F)cc1)Nc1c[nH]c2cc(F)cnc12 [Compound 330]
target under test: hSTING (Homo sapiens, UniProt Q86WV6, G230A/H232R/R293Q/R71H)
measured: 5.30 to 6.00
//
compound: O=C(Nc1c[nH]c2ncc(F)cc12)NC1CCC(C(F)(F)F)CC1 (stereo not drawn) [Compound 270]
target under test: hSTING (Homo sapiens, UniProt Q86WV6, G230A/H232R/R293Q/R71H)
measured: 4.00 to 5.30
//
compound: O=C(Nc1ccc(C2CCCCC2)cn1)Nc1c[nH]c2cnccc12 [Compound 313]
target under test: hSTING (Homo sapiens, UniProt Q86WV6, G230A/H232R/R293Q/R71H)
measured: 5.30 to 6.00
//
compound: Nc1cnc2[nH]cc(NC(=O)N3CC(c4ccccc4)C3)c2c1 [Compound 249]
target under test: hSTING (Homo sapiens, UniProt Q86WV6, G230A/H232R/R293Q/R71H)
measured: 4.00 to 5.30
//
compound: O=C(Nc1ccc2ccncc2c1)Nc1c[nH]c2ncc(F)cc12 [Compound 287]
target under test: hSTING (Homo sapiens, UniProt Q86WV6, G230A/H232R/R293Q/R71H)
measured: 5.30 to 6.00
//
compound: O=C(Nc1ccc(C2CCCCC2)nc1)Nc1c[nH]c2cnccc12 [Compound 312]
target under test: hSTING (Homo sapiens, UniProt Q86WV6, G230A/H232R/R293Q/R71H)
measured: 5.30 to 6.00
//
compound: Cn1cc(-c2cnc3[nH]cc(NC(=O)Nc4ccc(C(F)(F)F)cc4)c3c2)c(C(F)(F)F)n1 [Compound 198]
target under test: hSTING (Homo sapiens, UniProt Q86WV6, G230A/H232R/R293Q/R71H)
measured: 5.30 to 6.00
//
compound: O=C(Nc1ccc(C(F)(F)F)cn1)Nc1c[nH]c2ncc(F)cc12 [Compound 138]
target under test: hSTING (Homo sapiens, UniProt Q86WV6, G230A/H232R/R293Q/R71H)
measured: 6.00 to 6.70
//
compound: CN(C)S(=O)(=O)c1cccc(-c2cnc3[nH]cc(NC(=O)Nc4ccc(C(F)(F)F)cc4)c3c2)c1 [Compound 204]
target under test: hSTING (Homo sapiens, UniProt Q86WV6, G230A/H232R/R293Q/R71H)
measured: 5.30 to 6.00
//
compound: O=C(Nc1c[nH]c2ncccc12)N1CCc2ccccc21 [Compound 303]
target under test: hSTING (Homo sapiens, UniProt Q86WV6, G230A/H232R/R293Q/R71H)
measured: 4.00 to 5.30
//
compound: CN(C(=O)Nc1c[nH]c2cccnc12)c1ccc(C(F)(F)F)cc1 [Compound 154]
target under test: hSTING (Homo sapiens, UniProt Q86WV6, G230A/H232R/R293Q/R71H)
measured: 4.00 to 5.30

---

molecular target: hSTING (Homo sapiens, UniProt Q86WV6, G230A/H232R/R293Q/R71H); experiment: STING reporter assay (luciferase reporter) in THP1-Dual KO-IFNAR2 cells activated with 2′3′cGAMP; conditions: 15 μM 2′3′cGAMP, 24 h, luciferase reporter activity
Reported EC50 values are given for each entry in this list.

molecule: O=C(Nc1c[nH]c2cccnc12)NC1CCC2(CCC2)CC1
target under test: hSTING (Homo sapiens, UniProt Q86WV6, G230A/H232R/R293Q/R71H)
EC50: 1 to 5 µM
--
molecule: O=C(Nc1ccc(C(F)(F)F)cc1)Nc1c[nH]c2cccnc12
target under test: hSTING (Homo sapiens, UniProt Q86WV6, G230A/H232R/R293Q/R71H)
EC50: 1 to 5 µM
--
molecule: O=C(Nc1nc2ccccc2s1)Nc1c[nH]c2ncc(F)cc12
target under test: hSTING (Homo sapiens, UniProt Q86WV6, G230A/H232R/R293Q/R71H)
EC50: 0.2 to 1 µM
--
molecule: O=C(Nc1ccc(C(F)(F)F)cc1)Nc1c[nH]c2nccc(-c3cccnc3)c12
target under test: hSTING (Homo sapiens, UniProt Q86WV6, G230A/H232R/R293Q/R71H)
EC50: 5 to 100 µM
--
molecule: CCCCC1CCN(C(=O)Nc2c[nH]c3ncccc23)CC1
target under test: hSTING (Homo sapiens, UniProt Q86WV6, G230A/H232R/R293Q/R71H)
EC50: 1 to 5 µM
--
molecule: O=C(Nc1c[nH]c2ncccc12)N1CCCc2ccccc21
target under test: hSTING (Homo sapiens, UniProt Q86WV6, G230A/H232R/R293Q/R71H)
EC50: 5 to 100 µM
--
molecule: O=C(Nc1cnc(-c2ccccc2)s1)Nc1c[nH]c2ncc(F)cc12
target under test: hSTING (Homo sapiens, UniProt Q86WV6, G230A/H232R/R293Q/R71H)
EC50: 0.2 to 1 µM
--
molecule: O=C(Nc1ccc(C(F)(F)F)nc1)Nc1c[nH]c2ncc(F)cc12
target under test: hSTING (Homo sapiens, UniProt Q86WV6, G230A/H232R/R293Q/R71H)
EC50: 1 to 5 µM
--
molecule: O=C(Nc1c[nH]c2cnccc12)NC1CCC(c2ccccc2)CC1 (stereo not shown)
target under test: hSTING (Homo sapiens, UniProt Q86WV6, G230A/H232R/R293Q/R71H)
EC50: 1 to 5 µM
--
molecule: O=C(Nc1c[nH]c2ncccc12)NC1CCCc2ccccc21 (stereo not shown)
target under test: hSTING (Homo sapiens, UniProt Q86WV6, G230A/H232R/R293Q/R71H)
EC50: 5 to 100 µM
--
molecule: O=C(Nc1ccc(C(F)(F)F)cc1)Nc1c[nH]c2nccc(C3=CCOCC3)c12
target under test: hSTING (Homo sapiens, UniProt Q86WV6, G230A/H232R/R293Q/R71H)
EC50: 5 to 100 µM
--
molecule: O=C(Nc1cccc(C2CCCCC2)c1)Nc1c[nH]c2ncc(F)cc12
target under test: hSTING (Homo sapiens, UniProt Q86WV6, G230A/H232R/R293Q/R71H)
EC50: 0.2 to 1 µM
--
molecule: CC(C)(O)c1cccc(-c2cnc3[nH]cc(NC(=O)Nc4ccc(C(F)(F)F)cc4)c3c2)c1
target under test: hSTING (Homo sapiens, UniProt Q86WV6, G230A/H232R/R293Q/R71H)
EC50: 1 to 5 µM
